Tested on: CP291
experimental.protocol: qHTS profiling for inhibitors of Plasmodium falciparum proliferation (AID 504749); note: nearly all actives have a fitted effect of over 60% in size
study.conditions: P. falciparum in erythrocytes, SYBR Green DNA, 72 h; series mostly up to 28.7 µM
Inconclusive results are not listed. Calls of active or inactive are those of the source. Calls come from the whole dose curve; as a rule, active = well fitted inhibition curve with a large enough effect; inconclusive = small, poorly fitted or top-dose-only effect; inactive = flat fitted curve, though single readings scatter.
Select the correct class. Options are Yes = active, No = inactive and nothing else.

Reference set (3 entries):
CC(=O)OCC1=C(C(=O)O)N2C(=O)[C@@H](NC(=O)Cc3cccs3)[C@H]2SC1
No
NC(=O)N1c2ccccc2C=Cc2ccccc21
No
CCO/C([O-])=N/c1c[n+](N2CCOCC2)no1
No

[Q] Recorded test outcome, item CCN(CC)CCCN(c1ccccc1)C1Cc2ccccc2C1
[A] Yes

[Q] Recorded test outcome, item COc1ccc(CN(CCN(C)C)c2ccccn2)cc1
[A] No

[Q] Recorded test outcome, item Nc1c2c(nc3ccccc13)CCCC2O (centres undefined)
[A] No

----------
Test system: CP192
experimental.protocol: qHTS profiling for inhibitors of Plasmodium falciparum proliferation (AID 504749); note: nearly all actives have a fitted effect of over 60% in size
study.conditions: P. falciparum in erythrocytes, SYBR Green DNA, 72 h; series mostly up to 28.7 µM
Records with an inconclusive call do not appear. Calls of active or inactive are those of the source. Calls come from the whole dose curve; as a rule, active = well fitted inhibition curve with a large enough effect; inconclusive = small, poorly fitted or top-dose-only effect; inactive = flat fitted curve, though single readings scatter.
Select the correct class. Options are Yes for active, No for inactive and nothing else.

Reference set (6 entries):
CC(=O)Oc1cc(C(C)C)c(OCCN(C)C)cc1C
No
O=C(CCNNC(=O)c1ccncc1)NCc1ccccc1
No
Cc1ccc(S(=O)(=O)NC(=O)NN2CCCCCC2)cc1
No
CCc1cccc(N(C)C(N)=Nc2cccc3ccccc23)c1
No
NC(=O)N1c2ccccc2C=Cc2ccccc21
No
COc1cc2c(cc1OC)-c1cc(=Nc3c(C)cc(C)cc3C)n(C)c(=O)n1CC2
Yes

Then this compound:
[Q] Recorded test outcome, item CCOC(=O)c1cnc2c(cnn2CC)c1NN=C(C)C
[A] No

----------
Tested on: ECU
experimental.protocol: qHTS profiling for inhibitors of Plasmodium falciparum proliferation (AID 504749); note: nearly all actives have a fitted effect of over 60% in size; note: potency is the fitted concentration of half-maximal effect
study.conditions: P. falciparum in erythrocytes, SYBR Green DNA, 72 h; series mostly up to 28.7 µM
Results filed as inconclusive are left out. Activity calls are given as the source filed them. The call rests on the fitted dose curve; in most records, active means well fitted inhibition curve with a large enough effect; inconclusive means small, poorly fitted or top-dose-only effect; inactive means flat fitted curve, though single readings scatter.
value.type: Potency

Previously resolved entries follow.
OCCN1CCN(CCCN2c3ccccc3C=Cc3ccccc32)CC1
2.82 µM (active)
CC1=C(C)C(=O)C(CCCCC#CCCCC#CCO)=C(C)C1=O
2.82 µM (active)
Nc1nc(N)c2nc(-c3ccccc3)c(N)nc2n1
2.82 µM (active)
Nc1c2c(nc3ccccc13)CCCC2O (stereo not drawn)
inactive
O=C(O)CP(=O)(O)O
inactive

[Q] Query (molecule): C[C@H](CS)C(=O)N1CCC[C@H]1C(=O)O ; field requested: Potency
[A] inactive

----------
experimental.protocol: qHTS assay for small molecule antagonists of retinoid X receptor alpha signaling (AID 588546);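 note: cells stimulated with 9-cis-retinoic acid as agonist; % is set by controls: 0 for no effect and ±100 for the full control effect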
study.conditions: HEK293T RXRa-UAS-bla, beta-lactamase ratio, antagonist mode; measured here: W530 green channel, cytotoxicity proxy
Records with an inconclusive call do not appear.
compounds and their reported max response

Previously resolved entries follow.
Nc1ncn([C@@H]2O[C@H](CO)[C@@H](O)[C@H]2O)c(=O)n1
-15%
O=c1[nH]c(=O)n([C@H]2C[C@H](O)[C@@H](CO)O2)cc1Br
11.1%

[Q] Query (compound): O=C(O)CCCCCCCC(=O)O ; field requested: max response
[A] -5.98%
